# Tested on: platelet plasma (platelet-rich plasma of rabbit)
# assay.remarks: Platelet aggregation inhibitory action (Test Example 1), rabbit platelet plasma, aggregation by ADP, PAF, AA or collagen
# Assay type: cell-based
# test.parameters: Oryctolagus cuniculus, 10 μM adenosine diphosphate (ADP), read-out: 50% inhibitory efficacy (IC 50), ADP, Coagulant (ID50)
pIC50: −log10 of the molar value.
outcome.measure: pIC50

Previously resolved entries follow.
Asked: Recorded pIC50 of O=c1ccc2c3c(ccc2[nH]1)OCCC3O (centres unmarked) , please.
Given back: 4.70

Asked: Recorded pIC50 of O=c1ccc2c3c(ccc2[nH]1)OCC=C3 , please.
Given back: 4.52

Asked: Recorded pIC50 of O=c1ccc2c3c(ccc2[nH]1)OCC(O)C3 (centres unmarked) , please.
Given back: 4.52

Asked: Recorded pIC50 of O=c1ccc2c3c(ccc2[nH]1)OCCC3 , please.
Given back: 5.52

Asked: Recorded pIC50 of CC1(C)CCc2c(ccc3[nH]c(=O)ccc23)O1 , please.
Given back: 5.30

Asked: Recorded pIC50 of CC1(C)CCc2c(ccc3c2CCC(=O)N3)O1 , please.
Given back: 4.70

[P] CC1(C)Oc2ccc3[nH]c(=O)ccc3c2CC1O (centres unmarked)
[Q] CC1CCc2c(ccc3[nH]c(=O)ccc23)O1 (centres unmarked)
Asked: // compare: P vs Q , metric pIC50, want the smaller // return label of chosen record
Given back: P

---

# Tested on: platelet plasma (platelet-rich plasma of rabbit)
# assay.remarks: Platelet aggregation inhibitory action (Test Example 1), rabbit platelet plasma, aggregation by ADP, PAF, AA or collagen
# Format: cell-based
# test.parameters: Oryctolagus cuniculus, 300 μM arachidonic acid (AA), read-out: 50% inhibitory efficacy (IC 50), AA, Coagulant (ID50)
outcome.measure: IC50 (µM)

Previously resolved entries follow.
Asked: Recorded IC50 of O=c1ccc2c3c(ccc2[nH]1)OCC(O)C3 (centres unmarked) , please.
Given back: 21

Asked: Recorded IC50 of O=c1ccc2c3c(ccc2[nH]1)OCC=C3 , please.
Given back: 18

Asked: Recorded IC50 of CC1(C)CCc2c(ccc3[nH]c(=O)ccc23)O1 , please.
Given back: 5

Asked: Recorded IC50 of CC1(C)Oc2ccc3[nH]c(=O)ccc3c2CC1O (centres unmarked) , please.
Given back: 13

Asked: Recorded IC50 of O=c1ccc2c3c(ccc2[nH]1)OCCC3 , please.
Given back: 4

[A] O=c1ccc2c3c(ccc2[nH]1)OCCC3O (centres unmarked)
[B] CC1CCc2c(ccc3[nH]c(=O)ccc23)O1 (centres unmarked)
Asked: // compare: A vs B , metric IC50, want the smaller // return label of chosen record
Given back: B
